The values you see were collected from the supplement of paper PMC9112550.

- Test system: Escherichia coli TOP10;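 also: peptides expressed intracellularly from a pBAD plasmid library in pooled LB shake-flask culture, induced with 0.3% L-arabinose, DNA abundance read by NGS, three biological replicates, DESeq2 with apeglm shrinkage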
- testMethodNotes: shrunken log2 fold change of peptide-encoding DNA abundance (4.5 h post-induction vs induction); higher = less antimicrobial activity (less host growth inhibition)
- experimentalConditions: time post-induction: 4.5 h; library: site-saturation at positions 5, 18, 19, 20
# shrunken log2 fold change binned as lower level (below -0.07), middle level (-0.07 to below 0.05), upper level (0.05 or more)

Before answering, review these 5 worked examples.
INSERT INTO assay_data (orderedresidues, categorylabel) VALUES
  ('RRIRMRPPRLPRPRPRPTHQPRP', 'upper level'),
  ('RRIRTRPPRLPRPRPRPWRSPRP', 'middle level'),
  ('RRIRGRPPRLPRPRPRPNEAPRP', 'upper level'),
  ('RRIRFRPPRLPRPRPRPLGFPRP', 'lower level'),
  ('RRIRQRPPRLPRPRPRPIGSPRP', 'middle level');

Exercise: Band assignment needed for "RRIRRRPPRLPRPRPRPHMLPRP" please.
Solution: middle level

Exercise: Bin? "RRIRCRPPRLPRPRPRPSFGPRP"
Solution: lower level

Exercise: Which class holds "RRIRLRPPRLPRPRPRPGMVPRP" ?
Solution: middle level

Exercise: Please let me know in which category the item "RRIRFRPPRLPRPRPRPEYPPRP" belongs.
Solution: lower level

Exercise: Just checking, what class would you give "RRIRKRPPRLPRPRPRPIGNPRP" here?
Solution: upper level

Exercise: Which shrunken log2 fold change category applies to "RRIRQRPPRLPRPRPRPARFPRP" here?
Solution: middle level

Exercise: Textbook exercise: identify the category of the sequence given here, "RRIRNRPPRLPRPRPRPTKPPRP" , according to its measured value.
Solution: upper level

Exercise: Hello team, could you let me know which band the following sequence falls into: "RRIRARPPRLPRPRPRPKHHPRP"
Solution: middle level

Exercise: Class label required: "RRIRTRPPRLPRPRPRPSSMPRP"
Solution: lower level

Exercise: Please indicate the class for "RRIRPRPPRLPRPRPRPVTWPRP" based on its shrunken log2 fold change.
Solution: middle level
